- Protocol Text: NCI Yeast Anticancer Drug Screen. Data for the mec2-1 strain (AID 157)
- Applied Conditions: S. cerevisiae mec2-1 strain, at 50.0 µM
- Protocol: Growth inhibition of yeast strains with defined genetic alterations is measured as a screen for potential anti-cancer activity. Selected strains with alterations in DNA damage repair or cell cycle control were exposed to compounds and growth inhibition was measured relative to vehicle treated controls. The strain used in this assay is mec2-1
The panel holds about 79,000 compounds, 15% with a hit somewhere; the sample as a whole holds those more often. The source made the active and inactive calls. No stated cut-off is given here; in the data, active means growth inhibition above about 70%; inactive means the rest.
Please answer using one outcome listed in active, inactive

Before answering, review these 6 worked examples.
C=CCCCCCCCCC(=O)CCCCCCCCC=C = inactive
CCOC(=O)C(=N\Nc1ccccc1C)/C(C)=N\NC(N)=S = inactive
O=[N+]([O-])c1ccc(O)c(-c2ccccc2)c1 = active
O=[N+]([O-])c1c[nH]c2ncnc(SCc3ccccc3)c12 = active
CS(=O)(=O)N\N=C1/C=C\C(=N/NS(C)(=O)=O)CCc2ccc(cc2)CC1 = active
Oc1cccc2ccc(/C=C/c3ccccn3)nc12 = active

Which outcome was assigned to CCC(C1SC(=S)NC1=O)C1SC(=S)NC1=O (stereo not drawn) in this test?
active

Same again, this time with COc1ccc(CN2COc3c(cc(C)c4cccnc34)C2)cc1
inactive

Also S=C(Nc1ccccc1)NC1CCCCCCCCC1 , if possible.
inactive

Now the molecule CCOC(=O)C(C#N)c1cc(O)c(C(C#N)C(=O)OCC)cc1O (stereo not drawn)
inactive

Similarly, CC1=C/C(=C\C=C2/N(C)c3c(C)cccc3C2(C)C)C(=O)c2ncccc21 ?
inactive

Subsequent entry: [Cu+2].[O-]/N=C/c1cccc(O)c1[O-].[O-]/N=C/c1cccc(O)c1[O-]
active

Next molecule up: c1csc(-c2nnc(C34CC5CC(CC(C5)C3)C4)o2)c1
inactive

Proceed to C=CC1(c2ccc(-c3ccccc3)cc2)OCCO1
inactive

###

- Protocol Text: NCI Yeast Anticancer Drug Screen. Data for the mlh1 rad18 strain (AID 175)
- Applied Conditions: S. cerevisiae mlh1 rad18 strain growth inhibition; at 50.0 µM; active compounds read high
This is part of a sample that, as a whole, favours compounds with a hit. Of some 79,000 tested, about 15% had one in any assay.
Would you mind telling me the reported growth inhibition of each entry?
One number for each entry, in %.

Illustrative cases are given below, each with its answer.
CN1c2ccccc2C(c2ccccc2)c2ccc(Nc3ccccc3)cc21 (stereo unspecified) = 99.4
O=C(CC(=O)C(F)(F)F)c1ccc(-c2ccccc2)cc1 = 98.7
CN(C)CCCNc1c2ccccc2nc2ccc([N+](=O)[O-])cc12 = 29.2
Fc1cccc(NC(=S)SCc2ccco2)c1 = 97.2
COC(=O)c1ccc(OCCC(=O)CCl)cc1 = 97.8

# batch size: 3; output growth inhibition per entry
1. O=c1cccccc1[O-].O=c1cccccc1[O-].O=c1cccccc1[O-].[Dy+3]
2. CNC(=S)N/N=C(\C=N\NC(=S)NC)c1ccccc1
3. O=[N+]([O-])c1cc(Cl)ccc1S(=O)(=O)c1ccccc1

[92, 66.8, 79.7]

###

- Protocol Text: NCI Yeast Anticancer Drug Screen. Data for the mlh1 rad18 strain (AID 175)
- Applied Conditions: S. cerevisiae mlh1 rad18 strain growth inhibition; at 50.0 µM
About 79,000 compounds went through this panel and 15% of them were active in at least one assay; those are over-represented in the sample as a whole. Activity calls are given as the source filed them. Rule as the data show it: active = growth inhibition above about 70%; inactive = the rest.
Give your call using only these classes: active, inactive

Which outcome was entered for the compound CCCN(CCC)CC(O)c1ccc2ccc3ccc(Cl)cc3c2c1 (stereo unspecified) in this test?
active

For CC1CCC(C(C)C)C(OC(=O)Nc2ccc(S(=O)(=O)N(C)C)cc2)C1 (stereo unspecified) then?
active
